Assay Procedure: Primary qHTS to identify inhibitors of SARS-CoV-2 cell entry (AID 1645846); note: nearly all actives have a fitted effect of over 45% in size
Details: SARS-CoV-2 pseudovirus cell entry assay, luminescence
Results filed as inconclusive are left out. Activity calls are given as the source filed them. Calls come from the whole dose curve.
Possible outcomes: Y for active, N for inactive

1. CC(=O)OCC(=O)[C@@]12OC3(CCCC3)O[C@@H]1C[C@H]1[C@@H]3CCC4=CC(=O)C=C[C@]4(C)[C@@]3(F)[C@@H](O)C[C@@]12C ... N
2. O=C1OC2(CCC(C(=O)Nc3ccn(-c4ccccc4F)n3)CC2)c2cnccc21 (stereo unspecified) ... N
3. COc1ccc2c(c1)CC[C@@H]1[C@@H]2CC[C@]2(C)[C@@H](NCCCCCCN3C(=O)C=CC3=O)CC[C@@H]12 ... N
4. COc1cc(C)[nH]c(=O)c1CN1CCc2c(Cl)cc([C@H](OC)C3COC3)c(Cl)c2C1=O ... N
5. Cn1c(NC[C@@H](N)Cc2ccccc2)nc(-c2ccncc2)c(-c2ccc3ccccc3c2)c1=O ... Y
6. O=C1NC(=O)/C(=C\c2ccc(-c3ccc(F)cc3)o2)S1 ... N
7. O=C(NO)c1cnc(NC2(c3ccccc3)CC2)nc1 ... N
8. CCC=CCC=CCC=CCCCCCCCC(=O)O ... N
9. CN1CCCN(C(=O)c2cccc(-c3ccc(/C=C4/C(=O)Nc5ccc(Cl)cc54)o3)c2)CC1 ... Y
10. O=C[C@H](O)[C@@H](O)[C@H](O)[C@H](O)CO ... N
11. COc1cc2c(NC3CCN(CC4CCCCC4)CC3)nc(N3CCCN(C(C)C)CC3)nc2cc1OCCCN1CCCCC1 ... Y

* * *

Assay Procedure: Cell Viability - NIH 3T3 (AID 541);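 note: cells exposed to compound for 40 hours; plate controls were DMSO alone for no effect and tamoxifen positive control for full effect; nearly all actives have a fitted effect of over 25% in size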
Details: NIH 3T3 cell viability, qHTS; at 92.2 µM (top of the series)
Inconclusive results are not listed.
Experimental Endpoint: activity change, negative = cytotoxicity (%)

1. CCCCOC(=O)c1ccccc1C(=O)OCCCC ... -3.85
2. CCOP(=S)(OCC)SCSC(C)(C)C ... 1.25
3. Cc1ccc2ccccc2c1 ... -11.3
4. Clc1cc(Cl)c(-c2cc(Cl)c(Cl)cc2Cl)cc1Cl ... -24.8
5. O=[N+]([O-])c1ccc(Cl)c(Cl)c1 ... -16.5
6. CCCSC(=O)Cl ... -26.8
7. C[C@H]1CCCC(=O)CCC/C=C/c2cc(O)cc(O)c2C(=O)O1 ... -105
8. CCCCCCCC(=O)Cl ... 5.37
9. CCCCOCCOP(=O)(OCCOCCCC)OCCOCCCC ... -4.02
10. Clc1nc(Cl)nc(Cl)n1 ... -8.17
11. c1ccc2c(c1)CCCC2 ... 9.7
12. ClC1=C(Cl)C2(Cl)C3C4C=CC(C4)C3C1(Cl)C2(Cl)Cl (stereo not given) ... -10.7
13. O=[N+]([O-])c1cccc2ccccc12 ... 3.57
14. Nc1ccccc1Cl ... -1.33
15. C=CCc1ccc(OC)cc1 ... 3.06

* * *

Assay Procedure: qHTS assay for environmental chemicals that activate the Aryl hydrocarbon Receptor (AhR) signaling pathway (AID 651777); note: % of control where 0% means no effect; nearly all actives have a fitted effect of over 15% in size
Details: 1A2-DRE human hepatoma cells, luciferase, 24 h; hits give high values
Records with an inconclusive call do not appear.
Experimental Endpoint: activation (%)

1) Cc1ccc2ccccc2c1 ... 1.58
2) CC(C)Nc1nc(Cl)nc(NC(C)C)n1 ... 0.683
3) C=CC(C)=O ... 1.86
4) CC(C)(C)C(=O)C(Oc1ccc(Cl)cc1)n1cncn1 (stereo not drawn) ... 6
5) CCOP(=S)(OCC)Oc1ccc([N+](=O)[O-])cc1 ... 8.97
6) ClC1=C(Cl)C2(Cl)C3C4C=CC(C4)C3C1(Cl)C2(Cl)Cl (stereo not drawn) ... 0.192
7) Nc1ccc(Br)cc1 ... 0.717
8) CCOc1ccc(N)cc1 ... 1.6
9) C=CCOC(C)=O ... -0.904
10) CC(C)(C)OOC(C)(C)C ... -0.903
11) Cc1cccc(C#N)c1 ... 2.06
12) CCc1cccc(C)c1N(C(=O)CCl)C(C)COC (stereo not drawn) ... -0.315
13) CCN(CC)c1ccccc1 ... -0.415

* * *

Assay Procedure: qHTS Assay for Lipid Storage Modulators (AID 1519); note: % is set by controls: 0 for no effect and ±100 for the full control effect
Details: Drosophila S3 cells, BODIPY lipid droplet/cell ratio, laser cytometry; at 57.5 µM (top of the series); cells loaded with oleic acid
Records with an inconclusive call do not appear.
Experimental Endpoint: activity change, negative = inhibition (%)

1) CNC1[C@@H](O)C(OC2C(N)C[C@H](N)[C@@H](O[C@@H]3OC(C(C)O)C(O)C(O)C3N)C2O)OC[C@]1(C)O (some centres not stated) ... 8.52
2) Cc1ccccc1-c1cncnc1NCCc1cnc[nH]1 ... 6.91
3) CC(=O)OC1CC2C(C)(C)C(O)C=C[C@@]2(C)C2CC[C@]3(C)C(=CC(=O)OC3c3ccoc3)[C@]12C (some centres not stated) ... 6.31
4) c1ccc(N2CC3(CCNCC3)C2)nc1 ... -0.659
5) CNC(=O)Oc1cccc2c1OC(C)(C)C2 ... 4.9
6) CCC(C)C(=O)O[C@@H]1C[C@@]2(C)C(c3ccoc3)OC(=O)CC23OC2(C)O[C@@]14[C@@]1(C)C(CC(=O)OC)C5(C)CC1(O)C(O)(C5OC(=O)C1(C)OC1C)C(OC(C)=O)[C@@]34O2 (some centres not stated) ... 5.34
7) CC1(C)C(=O)C=C[C@@]2(C)C1=C(O)C(=O)[C@@]1(C)C2CC[C@@]2(C)C(c3ccoc3)C[C@H]3O[C@@]321 (some centres not stated) ... 0.256
8) CN1CC[C@@]2(CCCN(C(=O)c3ccncc3)C2)C1 ... 0.0036
9) O=C1CC(c2ccc(O)cc2)Oc2cc(O)cc(O)c21 (configuration not stated) ... 9.01
10) CC(=O)OC1CC(OC(C)=O)[C@]2(C)C(CC(OC(C)=O)[C@]3(C)C2CC[C@@]2(C)C(c4ccoc4)C(=O)C4O[C@]432)C1(C)C (some centres not stated) ... -15.3
11) C[N+]1=Cc2cc3c(cc2CC1)OCO3 ... 4.74
12) CC(C)N1C(=O)c2ccccc2NS1(=O)=O ... 2.96
13) CC(C)(C)C(=O)C(Oc1ccc(Cl)cc1)n1cncn1 (configuration not stated) ... 7.2
14) C=C(C)c1cc2cc(C(C)=O)c(O)cc2o1 ... 9.94
15) c1cc(CN2CCC3(CCNCC3)CC2)ccn1 ... 4.55
16) CN1C2CC3CC1C(O3)C2O (configuration not stated) ... 1.96
17) c1ccc(N2CC[C@@]3(CCCNC3)C2)nc1 ... 2.13
18) O=C(Oc1ccccc1)N1CCC2(CC1)CCN(C(c1ccccc1)c1ccccc1)CC2 ... 4.05
19) C#CCOS(=O)OC1CCCCC1Oc1ccc(C(C)(C)C)cc1 (configuration not stated) ... 5.08
20) O=C(O)COc1cc(Cl)c(Cl)cc1Cl ... 1.28
21) CC(=O)OC1C[C@H](O[C@@H]2C(O)C[C@H](O[C@@H]3C(O)C[C@@H](OC4CC[C@]5(C)C(CCC6C5CC(O)[C@@]5(C)C(C7=CC(=O)OC7)CC[C@@]65O)C4)OC3C)OC2C)O[C@H](C)[C@H]1O[C@H]1OC(CO)C(O)C(O)C1O (some centres not stated) ... 1.49
22) C[C@]12CCC(=O)C=C1CCc1ccc(O)cc12 ... -0.872
23) O=C1C(Cl)=C(Cl)C(=O)C(Cl)=C1Cl ... -9.83
24) C=C[C@H]1CN2CCC1C[C@@H]2C(O)c1ccnc2ccccc12 (some centres not stated) ... 7.24
25) c1cnc(N2CCC3(CCNCC3)CC2)nc1 ... 5.39
26) CC(C)Nc1nc(Cl)nc(NC(C)C)n1 ... 3.35
27) CC(=O)OC1C(=O)[C@]2(C)C(O)CC3OC[C@]3(OC(C)=O)C2[C@@H](OC(=O)c2ccccc2)[C@]2(O)CC(O)C(C)=C1C2(C)C (some centres not stated) ... 0.522
28) c1ccc2c(c1)[nH]c1cnccc12 ... 0.155
29) O=C(Nc1cccc(F)c1)N1CC[C@@]2(CCCN(C(=O)Oc3ccccc3)C2)C1 ... 7.1
30) COc1ccc2cc1Oc1ccc(cc1)CC1c3cc(c(OC)cc3CCN1C)Oc1c(OC)c(OC)cc3c1C(C2)N(C)CC3 (configuration not stated) ... 6.58
31) N#C/C(=C\c1cccc(O)c1)C(=O)O ... 5.07
32) CC(C)CC(CN)CC(=O)O (configuration not stated) ... 8.71
33) CC(C)(C#N)O[C@H]1OC(CO)C(O)C(O)C1O (some centres not stated) ... 4.98
34) OC[C@@H]1CCCN2CCCC[C@@H]12 ... -9.64
35) C[C@@]12CCC3C(CCC4=CC(=O)CC[C@]43C)C1CCC2O (some centres not stated) ... -1.38
36) O=C(Nc1ccccc1)N1CC[C@@]2(CCCN(C(=O)Oc3ccccc3)C2)C1 ... 8.84
37) CCc1cccc(C)c1N(C(=O)CCl)C(C)COC (configuration not stated) ... 1.46
38) CC(C)NC(=O)N1CCCC2(CCN(C(=O)Oc3ccccc3)CC2)C1 ... 6.21
39) COc1cc(C=C(C#N)C#N)cc(O)c1O ... -2.14
40) CCN1C[C@]2(COC)C(O)C[C@H](OC)[C@@]34C5C[C@]6(O)C(OC)C(O)[C@](OC(C)=O)(C5C6OC(=O)c5ccccc5)C(C(OC)C23)C14 (some centres not stated) ... 4.84
41) CC(N)[C@@H](O)c1ccccc1 (some centres not stated) ... 6.04
42) FC(F)(F)c1cccc(N2CCNCC2)c1 ... 4.68
